VALUE TYPE: melting point

Solved entries:
CO[C@@H]1[C@@H](OC)[C@H](c2ccccc2)O[C@@H]2CO[C@@H](c3ccc(-c4ccccc4)cc3)O[C@@H]12: 111 to 112 °C
CO[C@@H]1[C@@H](OC)[C@H](c2ccccc2)O[C@@H]2CO[C@@H](c3ccccc3)O[C@@H]12: 97 to 98 °C
CO[C@@H]1[C@@H](OC)[C@H](c2ccccc2)O[C@@H]2CO[C@@H](c3ccc4ccccc4c3)O[C@@H]12: 135 °C
C#CCO[C@@H]1[C@@H](OCC#C)[C@H](Cc2ccccc2)O[C@@H]2CO[C@@H](c3ccccc3)O[C@@H]12: 81 to 83 °C

Record CCO[C@@H]1[C@@H](OCC)[C@H](Cc2ccccc2)O[C@@H]2CO[C@@H](c3ccccc3)O[C@@H]12 . Reported melting point: 87 to 89 °C
